kon values for the binders below.
tested system: T1, recombinant fibronectin domain ED-B (His)6 (human, UniProt P02751 1266-1356)
T1 construct: domain: ED-B; Produced by standard procedures; immobilised on ELISA plates or on the BIAcore chip; also called recombinant ED-B; human ED-B
run description: SPR (BIAcore), ED-B immobilised on chip (about 100 RU), Fab in flow
The answer is to be given in M⁻¹ s⁻¹; state only the numeric part.

Please review the following examples before continuing.
binder="MOR03251 (Fab, V domains shown, Fab, H-CDR2 derivative of MOR03062) VH: QVQLVESGGGLVQPGGSLRLSCAASGFTFSSYGMHWVRQAPGKGLEWVSVISNMSYTIYYADSVKGRFTISRDNSKNTLYLQMNSLRAEDTAVYYCARNKVGFDVWGQGTLVTVSS VL: DIALTQPASVSGSPGQSITISCTGTSSDGGGYNTVSWYQQHPGKAPKLMIYYVHKRPSGVSNRFSGSKSGNTASLTISGLQAEDEADYYCQSWDLSVHQVVFGGGTKLTVLG" endpoint_unit="M⁻¹ s⁻¹" readout_number=3.3e+06
binder="MOR03252 (Fab, V domains shown, Fab, H-CDR2 derivative of MOR03062) VH: QVQLVESGGGLVQPGGSLRLSCAASGFTFSSYGMHWVRQAPGKGLEWVSVISNYSWHIYYADSVKGRFTISRDNSKNTLYLQMNSLRAEDTAVYYCARNKVGFDVWGQGTLVTVSS VL: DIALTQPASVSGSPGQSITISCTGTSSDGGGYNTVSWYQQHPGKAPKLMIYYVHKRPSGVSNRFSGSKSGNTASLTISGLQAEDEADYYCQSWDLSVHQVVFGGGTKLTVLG" endpoint_unit="M⁻¹ s⁻¹" readout_number=3.1e+06
binder="MOR03255 (Fab, V domains shown, Fab, H-CDR2 derivative of MOR03062) VH: QVQLVESGGGLVQPGGSLRLSCAASGFTFSSYGMHWVRQAPGKGLEWVSVISNRSSYIYYADSVKGRFTISRDNSKNTLYLQMNSLRAEDTAVYYCARNKVGFDVWGQGTLVTVSS VL: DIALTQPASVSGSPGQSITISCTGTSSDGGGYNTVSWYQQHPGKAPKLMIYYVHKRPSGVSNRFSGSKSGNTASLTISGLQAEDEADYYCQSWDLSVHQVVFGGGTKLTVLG" endpoint_unit="M⁻¹ s⁻¹" readout_number=4.9e+06

For the next question, use this binder.
The binder identified as MOR03257 (Fab, V domains shown, Fab, H-CDR2 derivative of MOR03062) VH: QVQLVESGGGLVQPGGSLRLSCAASGFTFSSYGMHWVRQAPGKGLEWVSVISNRGNYIYYADSVKGRFTISRDNSKNTLYLQMNSLRAEDTAVYYCARNKVGFDVWGQGTLVTVSS VL: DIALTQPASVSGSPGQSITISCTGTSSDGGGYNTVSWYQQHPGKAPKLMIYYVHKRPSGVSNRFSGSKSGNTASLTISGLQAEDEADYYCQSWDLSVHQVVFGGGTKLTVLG registered its kon at 5.3e+06

Values compiled from patent US20060115428A1.
